Recorded thermal shift delta Tm, one value per entry.
- Tested on: LOC_OS04G57630-cb004
- test.name: thermal shift delta Tm vs DMSO control; higher = stronger stabilization (binding);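 also: purified Escherichia coli-expressed rice kinase domain construct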
- test.parameters: 12.5 µM; protein concentration 2 µM
Give the quantity in °C, number only.

Here is how some compounds turned out for thermal shift delta Tm.
{"compound": "C[C@@H]1COCCN1c1cc(C2([S@](C)(=N)=O)CC2)nc(-c2cc[nH]c3nccc2-3)n1", "metric": "thermal shift delta Tm", "readout.value": -0.11}
{"compound": "Nc1cc(C(F)(F)F)c(-c2cc(N3CCOCC3)nc(N3CCOCC3)n2)cn1 [Buparlisib (BKM120, NVP-BKM120)]", "metric": "thermal shift delta Tm", "readout.value": 0.52}
{"compound": "CN1CC[C@H](c2c(O)cc(O)c3c(=O)cc(-c4ccccc4Cl)oc23)[C@H](O)C1 [Flavopiridol (Alvocidib)]", "metric": "thermal shift delta Tm", "readout.value": 0.36}
{"compound": "Cc1cc(CS(=O)(=O)c2ccccc2)cc(OCc2ccc(CN3CCC[C@@H]3CO)cc2)c1", "metric": "thermal shift delta Tm", "readout.value": 0.05}
{"compound": "Cc1cc(C)c(/C=C2\\C(=O)Nc3ccccc32)[nH]1 [Semaxanib (SU5416)]", "metric": "thermal shift delta Tm", "readout.value": 0.62}

## Task thermal shift delta Tm for CC(C)(C)c1cc(/C=C(\C#N)C(N)=S)cc(C(C)(C)C)c1O [Tyrphostin AG 879] ?
## Result -0.19

## Task thermal shift delta Tm for CC(C)[C@H](CO)Nc1nc(Nc2cccc(Cl)c2)c2ncn(C(C)C)c2n1 [Purvalanol A] ?
## Result 1.65

* * *

- Tested on: LOC_OS03G50450-cb001
- test.name: thermal shift delta Tm vs DMSO control; higher = stronger stabilization (binding)
- test.parameters: 12.5 µM; protein concentration 2 µM
Counter-ions that a name gives are not always drawn.
Recorded thermal shift delta Tm, one value per entry.
Give the quantity in °C, number only.

{"molecule": "C=CC(=O)Nc1cccc(Oc2nc(Nc3ccc(N4CCN(C)CC4)cc3OC)ncc2Cl)c1", "readout.value": 0.52}
{"molecule": "Cc1cc(O)c(-c2ccc([C@@H](C)CN)cc2)c2c1[nH]c(=O)c1sccc12 [OTS514 hydrochloride]", "readout.value": 0.04}

## Task thermal shift delta Tm for C[S+]([O-])c1ccc(-c2nc(-c3ccc(F)cc3)c(-c3ccncc3)[nH]2)cc1 (stereo not drawn) ?
## Result 0.08

* * *

- System: LOC_OS04G41100-cb001
- Sequence (whole entry): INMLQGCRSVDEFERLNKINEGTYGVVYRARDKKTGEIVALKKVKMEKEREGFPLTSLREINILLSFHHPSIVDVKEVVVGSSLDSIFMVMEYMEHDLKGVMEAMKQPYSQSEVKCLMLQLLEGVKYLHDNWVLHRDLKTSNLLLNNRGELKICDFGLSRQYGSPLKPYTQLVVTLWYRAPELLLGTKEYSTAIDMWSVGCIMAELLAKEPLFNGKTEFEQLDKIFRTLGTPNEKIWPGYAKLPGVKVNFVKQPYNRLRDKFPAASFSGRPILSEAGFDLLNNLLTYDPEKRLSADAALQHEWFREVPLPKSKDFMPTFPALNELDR
- test.name: thermal shift delta Tm vs DMSO control; higher = stronger stabilization (binding)
- test.parameters: 12.5 µM; protein concentration 2 µM
Recorded thermal shift delta Tm, one value per entry.
Give the quantity in °C, number only.

Here is how some compounds turned out for thermal shift delta Tm.
{"structure.string": "COc1cc(N2CCN(C)CC2)ccc1Nc1nccc(-c2cn(C)c3cnccc23)n1", "readout.value": 0.51}
{"structure.string": "CCOc1cc(N2CCC(O)CC2)ccc1Nc1ncc2c(n1)N(C)c1ccccc1C(=O)N2C", "readout.value": 0.38}
{"structure.string": "CC(C)(C)S(=O)(=O)c1ccc2nccc(Nc3n[nH]c4ccc(F)cc34)c2c1", "readout.value": 0.12}

## Task thermal shift delta Tm for `C[C@@H]1CN(C(=O)c2ccc(NC(=O)c3cc(O[C@H](C)c4c(Cl)ccc(F)c4Cl)c(N)nn3)cc2)C[C@H](C)N1` ?
## Result 0.2

## Task thermal shift delta Tm for `Cn1ncc(Cl)c1-c1cc(C(=O)N[C@H](CN)Cc2cccc(F)c2)sc1Cl` ?
## Result 0.2

* * *

- Tested on: LOC_OS01G14860-cb001
- test.name: thermal shift delta Tm vs DMSO control; higher = stronger stabilization (binding)
- test.parameters: 12.5 µM; protein concentration 2 µM
Recorded thermal shift delta Tm, one value per entry.
Give the quantity in °C, number only.

{"compound": "CNc1nc(Nc2cnn([C@H]3CCN(C4COC4)C[C@@H]3F)c2Cl)ncc1C(F)(F)F", "metric": "thermal shift delta Tm", "readout.value": 0.15}
{"compound": "N#Cc1ccc2[nH]c(O)c(-c3ccc(CN4CCOCC4)cn3)c2c1", "metric": "thermal shift delta Tm", "readout.value": 6.12}
{"compound": "COc1ccc(Cl)cc1NC(=O)Nc1cc(C)nc2ccccc12", "metric": "thermal shift delta Tm", "readout.value": 0.5}
{"compound": "CC1(C)C=Cc2c(ccc3c2OC[C@@H](c2ccc(O)cc2O)C3)O1", "metric": "thermal shift delta Tm", "readout.value": 1.32}

## Task thermal shift delta Tm for CN(C)C/C=C/C(=O)Nc1cc2c(Nc3ccc(F)c(Cl)c3)ncnc2cc1O[C@H]1CCOC1 [Afatinib (BIBW2992) Dimaleate] ?
## Result 3.86

## Task thermal shift delta Tm for `CC(C)n1ncnc1-c1cn2c(n1)-c1ccc(O[C@@H](C)C(N)=O)cc1OCC2` ?
## Result 0.28

## Task thermal shift delta Tm for `Cc1nc(Nc2n[nH]c3c2CN(C(=O)N[C@H](CN(C)C)c2ccccc2)C3(C)C)c2sccc2n1` ?
## Result 4.22

## Task thermal shift delta Tm for `CN1c2ccccc2C(=O)Nc2cnc(Nc3ccc(N4CCC(O)CC4)cc3)nc21` ?
## Result 0.36

* * *

Recorded thermal shift delta Tm, one value per entry.
- System: LOC_OS02G17970-cb001
- test.name: thermal shift delta Tm vs DMSO control; higher = stronger stabilization (binding)
- test.parameters: 12.5 µM; protein concentration 2 µM
Give the quantity in °C, number only.

Here is how some molecules turned out for thermal shift delta Tm.
{"molecule": "C[C@@H]1COCCN1c1cc(C2([S@](C)(=N)=O)CC2)nc(-c2cc[nH]c3nccc2-3)n1", "metric": "thermal shift delta Tm", "u": "°C", "readout.value": 0.47}
{"molecule": "CN1CCC(CNc2ccc3ncc(-c4cccc(OC(F)(F)F)c4)n3n2)CC1 [SGI-1776 free base]", "metric": "thermal shift delta Tm", "u": "°C", "readout.value": -0.26}
{"molecule": "N#Cc1c(NC(=O)c2cccc3ccccc23)sc2c1CCCC2", "metric": "thermal shift delta Tm", "u": "°C", "readout.value": 0.76}
{"molecule": "Cc1cc(Nc2nc(N[C@@H](C)c3ncc(F)cn3)ncc2Cl)[nH]n1", "metric": "thermal shift delta Tm", "u": "°C", "readout.value": 0.48}
{"molecule": "Cc1cc(NC(=O)c2cccc(NC(=O)/C=C/CN(C)C)c2)ccc1Nc1nccc(-c2cccnc2)n1", "metric": "thermal shift delta Tm", "u": "°C", "readout.value": 1.45}

## Task Short answer please: thermal shift delta Tm, LOC_OS02G17970-cb001, entry `CCn1nc(C2CCN(C(=O)CCO)CC2)nc1-c1cnc(N)c(-c2nnc(C(C)(C)C)o2)n1`
## Result 1.34

* * *

- Test system: LOC_OS01G01410-cb001
- test.name: thermal shift delta Tm vs DMSO control; higher = stronger stabilization (binding)
- test.parameters: 12.5 µM; protein concentration 2 µM
Recorded thermal shift delta Tm, one value per entry.
Give the quantity in °C, number only.

Here is how some compounds turned out for thermal shift delta Tm.
{"compound": "CNC(=O)c1ccc(Nc2ncc(C(F)(F)F)c(NCc3nccnc3N(C)S(C)(=O)=O)n2)cc1", "target.or.test.system": "LOC_OS01G01410-cb001", "u": "°C", "thermal shift delta Tm": 1.64}
{"compound": "CC(C)(C)Cn1c(N)nc2ccc(-c3[nH]c(C(C)(C)C)nc3-c3ccc(F)cc3)nc21", "target.or.test.system": "LOC_OS01G01410-cb001", "u": "°C", "thermal shift delta Tm": 0.51}
{"compound": "C=CC(=O)Nc1cccc(Nc2nc(Nc3ccc(OCCOC)cc3)ncc2F)c1", "target.or.test.system": "LOC_OS01G01410-cb001", "u": "°C", "thermal shift delta Tm": 3.05}
{"compound": "O=C(NOCC(O)CO)c1cc(Br)c(F)c(F)c1Nc1ccc(I)cc1F (stereo unspecified)", "target.or.test.system": "LOC_OS01G01410-cb001", "u": "°C", "thermal shift delta Tm": 0.9}
{"compound": "Cc1cc([C@@H](C)Nc2ccccc2C(=O)O)c2nc(N3CCOCC3)cc(=O)n2c1", "target.or.test.system": "LOC_OS01G01410-cb001", "u": "°C", "thermal shift delta Tm": 0.29}

## Task thermal shift delta Tm for `C[C@H]1CNC(=O)c2cnn3ccc(nc23)N[C@H](C)c2cc(F)ccc2O1` ?
## Result -0.06

## Task thermal shift delta Tm for CC(C)CCN1c2nc(Nc3cc(F)c(O)c(F)c3)ncc2N(C)C(=O)C1C (stereo unspecified) ?
## Result 2.96

## Task thermal shift delta Tm for `CS(=O)(=O)CCNCc1ccc(-c2ccc3ncnc(Nc4ccc(OCc5cccc(F)c5)c(Cl)c4)c3c2)o1` ?
## Result 1.42

## Task thermal shift delta Tm for `Cn1c2ccccc2c2c3c(c4c5ccccc5n(CCC#N)c4c21)CNC3=O` ?
## Result 2.6

## Task thermal shift delta Tm for `Cc1nc(NC(=O)N2CCC[C@H]2C(N)=O)sc1-c1ccnc(C(C)(C)C(F)(F)F)c1` ?
## Result 0.28

## Task thermal shift delta Tm for `COc1ccc(-c2cc3nccn3c(Nc3ncccc3C(N)=O)n2)cc1OC` ?
## Result 1.05
